- System: lyso-PLD
- Type: biochemical, human
- run.parameters: PC-3 membranes; single-site competition fit; read-out: EC50 for inhibiting B-lyso-PC conversion to B-LPA
recorded.metric: EC50

Look over these answered cases.
* CCCCCCCCCCCCCCCCOC[C@@H](O)COP(=O)([O-])OCC[N+](C)(C)C | ~400 µM
* CCCCCCCCCCCCCCCCCC(=O)OC[C@@H](O)COP(=O)([O-])OCC[N+](C)(C)C | ~300 µM
* CCCCCCCC/C=C\CCCCCCCC(=O)OC[C@@H](O)COP(=O)([O-])OCC[N+](C)(C)C | ~300 µM
* CCCCCCCCCCCCCCCC(=O)OC[C@@H](O)COP(=O)([O-])OCC[N+](C)(C)C | ~300 µM

Alright, here's another compound for you.
// query Look up EC50 with lyso-PLD for this compound: CCCCCCCCCCCCCCCCCCOC[C@@H](O)COP(=O)([O-])OCC[N+](C)(C)C
// result ~400 µM
